System: airway smooth muscle (bronchial rings)
Test: Relaxation of evoked isometric force of bronchial rings (wire myograph)
Format: cell-based, mice
Conditions: Mus musculus; MCh-evoked force; dose dependent
test-readout: IC50 (µM)
Kindly answer with a numeric value in µM, unit omitted.

Please give the measured IC50 for this compound: CC1(C)[C@@H](O)CC[C@]2(C)[C@H]3C(=O)C=C4[C@@H]5C[C@@](C)(C(=O)O)CC[C@]5(C)CC[C@@]4(C)[C@]3(C)CC[C@@H]12 [Glycyrrhetinic acid, reference compound] 84.3

====

System: airway smooth muscle (bronchial rings)
Assay: Relaxation of evoked isometric force of bronchial rings (wire myograph)
Format: cell-based, mice
Details: 500 μM final; bronchi ring isometric assay
test-readout: relaxation of MCh-evoked force at final concentration of 500 μM

compound	result
C[C@@H]1O[C@@H](O[C@H]2[C@H](O[C@H]3[C@H](O[C@H]4CC[C@@]5(C)[C@@H](CC[C@]6(C)[C@@H]5CC=C5[C@@H]7CC(C)(C)C[C@@H](O)[C@]7(C)CC[C@]56C)[C@@]4(C)CO)O[C@H](C(=O)O)[C@@H](O)[C@@H]3O)O[C@H](CO)[C@H](O)[C@@H]2O)[C@H](O)[C@H](O)[C@H]1O [Soyasaponin Bb, reference compound]	about 50%
CC1(C)[C@@H](O)CC[C@]2(C)[C@H]3C(=O)C=C4[C@@H]5C[C@@](C)(C(=O)O)CC[C@]5(C)CC[C@@]4(C)[C@]3(C)CC[C@@H]12 [Glycyrrhetinic acid, reference compound]	about 50%

====

Test system: airway smooth muscle (bronchial rings)
Experiment: Relaxation of evoked isometric force of bronchial rings (wire myograph)
Assay type: cell-based, mice
Conditions: 500 μM final; bronchi ring isometric assay
test-readout: relaxation of MCh-evoked force at final concentration of 500 μM

molecule	result
COC(=O)[C@@]1(C)CC[C@]2(C(=O)O)CC[C@]3(C)C(=CC[C@@H]4[C@@]5(C)C[C@H](O)[C@H](O)[C@@](C)(CO)[C@@H]5CC[C@]43C)[C@@H]2C1 [Phytolaccagenin, reference compound]	about 50%
C[C@@H]1O[C@@H](O[C@@H]2[C@H](O)[C@@H](O)[C@H](O[C@H]3CC[C@@]4(C)C(CC[C@]5(C)C4C=C[C@]46OC[C@@]7(CCC(C)(C)CC74)[C@@H](O)C[C@]65C)C3(C)C)O[C@@H]2CO[C@@H]2O[C@H](CO)[C@@H](O)[C@H](O)[C@H]2O)[C@H](O)[C@H](O)[C@H]1O (stereo partly drawn) [Saikosaponin C, reference compound]	about 50%
C[C@@H]1O[C@@H](O[C@H]2[C@H](O[C@H]3[C@H](O[C@H]4CC[C@]5(C)[C@H]6CC=C7[C@@H]8CC(C)(C)CC[C@]8(C(=O)O)CC[C@@]7(C)[C@]6(C)CC[C@H]5C4(C)C)OC[C@H](O)[C@@H]3O)O[C@H](CO)[C@@H](O)[C@@H]2O)[C@H](O)[C@H](O)[C@H]1O [Raddeanin A, reference compound]	about 50%
